Hello, the source for this data is PubChem BioAssay, in case you need it.

- protocol.notes: differential killing of epithelial or mesenchymal cells, primary screen, imaging, PC-3E GFP, TEM4-18 mCherry, co-culture (AID 1345086);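 further: cells exposed to compound for 72 h before imaging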
- experimental.setup: imaging cell counts, measured here: epithelial PC-3E GFP cell survival, at 1 µM
value.kind: normalised cell number
Number, no unit, nothing else.

Example entries and their recorded answers appear below.
- O=c1cc(-c2ccccc2)oc2cc(O[C@@H]3O[C@H](CO)[C@@H](O)[C@H](O)[C@H]3O)c(O)c(O)c12: 1.13
- CC1=C2[C@H](C=C3CCC[C@@H](C)[C@]3(C)[C@@H]2O)OC1=O: 1.01
- COc1ccc(-c2oc3cc(OC)c(OC)c(OC)c3c(=O)c2OC)cc1OC: 0.9

Using the record for C[C@]12C=CC(=O)C=C1CCC1C2[C@@H](O)C[C@@]2(C)C1CC[C@]2(O)C(=O)CO (stereo not given in full) , report its normalised cell number.
1.03

Using the record for COC(=O)c1cn(C2CC2)c2c(OC)c(F)c(F)cc2c1=O , report its normalised cell number.
1.11

Using the record for CC12CCC3C(=CCc4cc(O)ccc43)C1CCC2=O (stereo not given) , report its normalised cell number.
1.14

Using the record for CC(C)(N=NC(C)(C)C(=N)N)C(=N)N , report its normalised cell number.
1.17

Using the record for O=C(O)c1ccc([C@H](O)c2ccccc2)cn1 , report its normalised cell number.
1.03

Using the record for NC[C@@H]1O[C@H](O[C@@H]2[C@@H](CO)OC(O[C@@H]3[C@@H](O)[C@H](N)C[C@H](N)[C@H]3O[C@H]3O[C@H](CO)[C@@H](O)[C@H](O)[C@H]3N)[C@@H]2O)[C@H](N)[C@@H](O)[C@@H]1O (stereo not given in full) , report its normalised cell number.
0.93

Using the record for CCC[C@@H]1C[C@@H](C(=O)N[C@@H](C2O[C@H](SC)[C@H](O)[C@@H](O)[C@H]2O)[C@H](C)Cl)N(C)C1 (stereo not given in full) , report its normalised cell number.
1.17
